Assembled from different publications: pIC50 for UniProt:O00767.
FYI, pIC50 means -log10 of a concentration in mol per litre.

Query: Form field: reported pIC50 of `O=C(O)Cn1nnc(-c2cnc(N3CCCN(c4ccccc4C(F)(F)F)CC3)s2)n1`
Reply: 7.52

Query: Form field: reported pIC50 of `Cc1cnnc(N2CCC(Oc3cc(C(F)(F)F)ccc3Cl)CC2)n1`
Reply: 6.52

Query: Form field: reported pIC50 of `Cc1ccc(C(F)(F)F)cc1C(=O)C1CCN(c2cc(-c3nnn(CC(=O)O)n3)on2)CC1`
Reply: 7.32

Query: Form field: reported pIC50 of `O=C(Nc1ccn[nH]c1=O)N1CCC(Oc2cc(C(F)(F)F)ccc2Cl)CC1`
Reply: 8.00
